- ASSAYED SYSTEM: FimH (Escherichia coli, UniProt P08191)
- Sequence (P08191 22-300): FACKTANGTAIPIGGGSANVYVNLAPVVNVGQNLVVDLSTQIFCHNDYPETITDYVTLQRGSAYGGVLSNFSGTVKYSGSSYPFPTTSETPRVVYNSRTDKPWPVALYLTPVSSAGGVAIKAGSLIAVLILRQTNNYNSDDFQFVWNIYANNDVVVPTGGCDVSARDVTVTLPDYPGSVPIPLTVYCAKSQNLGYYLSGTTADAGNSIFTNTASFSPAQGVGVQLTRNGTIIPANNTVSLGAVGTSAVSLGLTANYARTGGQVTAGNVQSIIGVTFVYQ
- METHOD: cell-based
- Parameters: species or system uropathogenic E. coli (UPEC)
- EXPERIMENTAL PARAMETERS: read-out: HAI Titer EC90
MEASURED ATTRIBUTE: EC90
Report the figure along with its unit, number first.

The value of EC90 measured for the compound CNC(=O)c1cc(C(=O)NC)cc(-c2ccc(O[C@H]3O[C@H](CO)[C@@H](O)[C@H](O)[C@@H]3O)c(C)c2)c1 turned out to be 16 nM

The value of EC90 measured for the compound COC(=O)c1cccc(-c2ccc(O[C@H]3O[C@H](CO)[C@@H](O)[C@H](O)[C@@H]3O)c(Cl)c2)c1 turned out to be 30 nM

The value of EC90 measured for the compound CNC(=O)c1cc(C(=O)NC)cc(-c2ccc(O[C@H]3O[C@H](CO)[C@@H](O)[C@H](O)[C@@H]3O)c(C(F)(F)F)c2)c1 turned out to be 8 nM

The value of EC90 measured for the compound COC(=O)c1cccc(-c2ccc(O[C@H]3O[C@H](CO)[C@@H](O)[C@H](O)[C@@H]3O)c(C(F)(F)F)c2)c1 turned out to be 30 nM

Origin of measurements: paper PMC3375398
